Test: Cell cytotoxicity assay A549 (CellTiter-Glo, 72 hours)
Type: cell-based
Details: human, A549 cells, Table 4; methyl-desmethyl analog pairs; read-out: Cytotox A549 EC50
quantity-name: log10(EC50 at 72 h) (log10 of the value in µM)
Give log10 of EC50 at 72 h, with EC50 at 72 h taken in µM.

Query (compound): CS(=O)(=O)c1ccc(OC(F)F)c(-c2n[nH]cc2NC(=O)c2cnn3cccnc23)c1 [Example 4 in WO201708 9390, reference compound] ; field requested: log10(EC50 at 72 h)
1.34

What does the record list as log10(EC50 at 72 h) for CCS(=O)(=O)c1ccc(OC(F)F)c(-c2nn(C)cc2NC(=O)c2cnn3cccnc23)c1 ?
0.83

// returns reported log10(EC50 at 72 h) for input O=C(Nc1c[nH]nc1-c1cc(S(=O)(=O)C(F)F)ccc1OC(F)F)c1cnn2cccnc12 [reference compound]
-0.59

Which value of log10(EC50 at 72 h) has been reported for Cn1cc(NC(=O)c2cnn3cccnc23)c(-c2cc(S(=O)(=O)C(F)F)ccc2OC(F)F)n1 in the records?
0.22

# query: log10(EC50 at 72 h) of entry Cn1cc(NC(=O)c2cnn3cccnc23)c(-c2cc(S(C)(=O)=O)ccc2OC(F)F)n1
0.94

Which log10(EC50 at 72 h) reading was recorded for the compound CCS(=O)(=O)c1ccc(OC(F)F)c(-c2n[nH]cc2NC(=O)c2cnn3cccnc23)c1 [Example. 192 in WO201708 9390, reference compound] ?
0.37

====

Target: recombinant human JAK1 kinase domain protein (Residues 854-1154) (Homo sapiens)
Construct: human JAK1 kinase domain protein (Residues 854-1154)
Assay: JAK1 biochemical assay (microfluidic mobility shift, peptide phosphorylation)
Conditions: 25 μM ATP, 1 nM total JAK1; read-out: Enzyme JAK1 Ki
quantity-name: Ki
Field note: include the unit after the figure.

Looking for the measured Ki of Cn1cc(NC(=O)c2cnn3cccnc23)c(-c2cc(S(=O)(=O)C3CCCNC3)ccc2OC(F)F)n1 (single isomer, unassigned) [Example 37] , can you help?
0.69 nM

Recorded Ki for Cn1cc(NC(=O)c2cnn3cccnc23)c(-c2cc(S(=O)(=O)c3cccc(O)c3)ccc2OC(F)F)n1 , please?
0.21 nM

# Ki lookup, item CN1C=Cc2ccc(S(=O)(=O)c3ccc(OC(F)F)c(-c4nn(C)cc4NC(=O)c4cnn5cccnc45)c3)cc2C1
2 nM

====

Provide the recorded EC50 at 72 h for the entries that follow.
Experiment: Cell cytotoxicity assay Jurkat (CellTiter-Glo, 72 hours)
Assay type: cell-based
Conditions: human, Jurkat clone E6-1 cells, Table 4; methyl-desmethyl analog pairs; read-out: Cytotox Jurkat EC50
Provide only the numeric value, understood in µM.

Param item = Cn1cc(NC(=O)c2cnn3cccnc23)c(-c2cc(S(C)(=O)=O)ccc2OC(F)F)n1 ; retrieve measured EC50 at 72 h.
11

Tell me the measured EC50 at 72 h of CCS(=O)(=O)c1ccc(OC(F)F)c(-c2nn(C)cc2NC(=O)c2cnn3cccnc23)c1 , please.
21.5

Requested field: EC50 at 72 h. Item: O=C(Nc1c[nH]nc1-c1cc(S(=O)(=O)C(F)F)ccc1OC(F)F)c1cnn2cccnc12 [reference compound]
0.16

====

Tested on: A549 cells
Test: Cell cytotoxicity assay A549 (CellTiter-Glo, 72 hours)
Format: cell-based
Conditions: Table 3; 72 hours, top concentration of 50 μM; read-out: Cytotox A549 EC50
quantity-name: EC50

What value of EC50 has been recorded for this entry: CC(CO)S(=O)(=O)c1ccc(OC(F)F)c(-c2nn(C)cc2NC(=O)c2cnn3cccnc23)c1 (single isomer, unassigned)
≥ 50 µM

====

Can you tell me Ki for the items I'm about to list?
Target: Recombinant human JAK2 kinase domain protein (Residues 812-1132) (Homo sapiens)
Assay: JAK2 biochemical assay (microfluidic mobility shift, peptide phosphorylation)
Conditions: Enzyme JAK2 Ki (nM), 25 μM ATP, 0.2 nM total JAK2
Provide only the numeric value, understood in nM.

Give the measured Ki of Cn1cc(NC(=O)c2cnn3cccnc23)c(-c2cc(S(=O)(=O)CCCO)ccc2OC(F)F)n1 .
0.28

Fill in: Ki of C[C@H](O)CS(=O)(=O)c1ccc(OC(F)F)c(-c2nn(C)cc2NC(=O)c2cnn3cccnc23)c1 (stereo in doubt) is ___
0.16

Tell me the measured Ki of CN1CCC(S(=O)(=O)c2ccc(OC(F)F)c(-c3nn(C)cc3NC(=O)c3cnn4cccnc34)c2)C1 (single isomer, unassigned) [Example 19] , please.
1.7

Param item = Cn1cc(NC(=O)c2cnn3cccnc23)c(-c2cc(S(=O)(=O)C3CCCNC3)ccc2OC(F)F)n1 (single isomer, unassigned) [Example 36] ; retrieve measured Ki.
1.1

Report Ki for N#CCn1cc(NC(=O)c2cnn3cccnc23)c(-c2cc(S(=O)(=O)C(F)F)ccc2OC(F)F)n1 please.
0.37

Consider the molecule Cn1cc(NC(=O)c2cnn3cccnc23)c(-c2cc(S(=O)(=O)C3CC3)ccc2OC(F)F)n1 and give its measured Ki.
0.19

Which Ki value belongs to Cn1cc(NC(=O)c2cnn3cccnc23)c(-c2cc(S(=O)(=O)c3c[nH]cn3)ccc2OC(F)F)n1 ?
0.18

====

Exercise: state measured log10 Ki for each of the molecules provided.
Target: Recombinant human JAK2 kinase domain protein (Residues 812-1132) (Homo sapiens, UniProt O60674)
Sequence (O60674 812-1132): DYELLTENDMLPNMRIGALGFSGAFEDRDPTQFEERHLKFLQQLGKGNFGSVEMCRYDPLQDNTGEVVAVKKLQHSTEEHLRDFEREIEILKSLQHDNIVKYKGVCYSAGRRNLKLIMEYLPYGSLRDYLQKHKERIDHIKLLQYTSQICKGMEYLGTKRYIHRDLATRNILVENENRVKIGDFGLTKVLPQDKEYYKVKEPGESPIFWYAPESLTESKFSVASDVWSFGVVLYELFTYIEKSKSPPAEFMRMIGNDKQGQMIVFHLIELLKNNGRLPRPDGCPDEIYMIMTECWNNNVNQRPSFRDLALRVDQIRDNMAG
Assay: JAK2 biochemical assay (microfluidic mobility shift, peptide phosphorylation)
Settings: Enzyme JAK2 Ki (nM), 25 μM ATP, 0.2 nM total JAK2
// units: nM (pre-log); metric: Ki; scale: log10

Reported log10 Ki, molecule N#CCn1cc(NC(=O)c2cnn3cccnc23)c(-c2cc(S(=O)(=O)C3COC3)ccc2OC(F)F)n1 : ____
-0.68

May I ask what log10 Ki has been recorded for Cn1cc(NC(=O)c2cnn3cccnc23)c(-c2cc(S(C)(=O)=O)ccc2OC(F)F)n1 ?
-1.00

Value lookup for log10 Ki; key = COc1cccc(S(=O)(=O)c2ccc(OC(F)F)c(-c3nn(C)cc3NC(=O)c3cnn4cccnc34)c2)c1
-0.85

Could you tell me which log10 Ki is on file for C[C@H](Cn1cc(S(=O)(=O)c2ccc(OC(F)F)c(-c3nn(C)cc3NC(=O)c3cnn4cccnc34)c2)cn1)N(C)C ?
-0.27

Tell me the measured log10 Ki of Cn1cc(NC(=O)c2cnn3cccnc23)c(-c2cc(S(=O)(=O)c3ccc(=O)[nH]c3)ccc2OC(F)F)n1 , please.
-0.57

Consider the molecule CC(C)S(=O)(=O)c1ccc(OC(F)F)c(-c2nn(C)cc2NC(=O)c2cnn3cccnc23)c1 and give its measured log10 Ki.
-0.60

Query: log10 Ki; subject: Cn1cc(NC(=O)c2cnn3cccnc23)c(-c2cc(S(=O)(=O)c3cnn(CCN4CCC4)c3)ccc2OC(F)F)n1
-0.72

So what's the measured log10 Ki for this one? C[C@@H](Cn1cc(S(=O)(=O)c2ccc(OC(F)F)c(-c3nn(C)cc3NC(=O)c3cnn4cccnc34)c2)cn1)N(C)C
-0.07

Which log10 Ki is listed for CN1C=Cc2cc(S(=O)(=O)c3ccc(OC(F)F)c(-c4nn(C)cc4NC(=O)c4cnn5cccnc45)c3)ccc2C1 ?
-0.08

Quick check: log10 Ki of CC(CO)S(=O)(=O)c1ccc(OC(F)F)c(-c2nn(C)cc2NC(=O)c2cnn3cccnc23)c1 (single isomer, unassigned) [Example 23] ?
-0.89

Quick one: log10 Ki for Cn1cc(NC(=O)c2cnn3cccnc23)c(-c2cc3c(cc2OC(F)F)NCCS3(=O)=O)n1 ?
-1.06

What measured log10 Ki goes with CN1C=Cc2ccc(S(=O)(=O)c3ccc(OC(F)F)c(-c4nn(C)cc4NC(=O)c4cnn5cccnc45)c3)cc2C1 ?
-0.03

// query log10 Ki value for entry CN1CC(S(=O)(=O)c2ccc(OC(F)F)c(-c3nn(C)cc3NC(=O)c3cnn4cccnc34)c2)C1
-0.18

I would be grateful if you could share the reported log10 Ki for CS(=O)(=O)c1ccc(OC(F)F)c(-c2nn(C3CCOC3=O)cc2NC(=O)c2cnn3cccnc23)c1 (single isomer, unassigned) [Example 32] .
-0.21

====

I'd be grateful if you could share measured pKi for these entries.
Target: recombinant human JAK1 kinase domain protein (Residues 854-1154) (Homo sapiens, UniProt P23458)
Construct: human JAK1 kinase domain protein (Residues 854-1154); purchased Proteros Biostructures GmbH (Martinsried, Germany); host or cells: insect cells
Sequence (P23458 854-1154): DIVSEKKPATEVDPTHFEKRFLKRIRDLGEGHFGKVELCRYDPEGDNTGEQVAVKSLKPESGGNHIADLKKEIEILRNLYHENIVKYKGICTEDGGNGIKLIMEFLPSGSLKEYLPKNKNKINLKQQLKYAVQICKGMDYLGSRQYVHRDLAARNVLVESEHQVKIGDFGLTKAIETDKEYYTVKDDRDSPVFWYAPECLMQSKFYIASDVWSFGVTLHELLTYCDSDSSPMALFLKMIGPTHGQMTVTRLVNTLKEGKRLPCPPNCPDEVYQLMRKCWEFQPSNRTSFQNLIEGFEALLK
Assay: JAK1 biochemical assay (microfluidic mobility shift, peptide phosphorylation)
Details: 25 μM ATP, 1 nM total JAK1; read-out: Enzyme JAK1 Ki
Friendly reminder that pKi comes from taking -log10 of the concentration in mol/L.

If you can, please state the reported pKi value of CN(C)CCS(=O)(=O)c1ccc(OC(F)F)c(-c2nn(C)cc2NC(=O)c2cnn3cccnc23)c1 .
9.06

Any idea what its pKi is? The molecule is CC(O)C(C)S(=O)(=O)c1ccc(OC(F)F)c(-c2nn(C)cc2NC(=O)c2cnn3cccnc23)c1 (single isomer, unassigned) [Example 70]
9.00

Entry under review: CN(C)S(=O)(=O)c1ccc(OC(F)F)c(-c2nn(C)cc2NC(=O)c2cnn3cccnc23)c1 . Reported pKi?
9.66

Entry Cn1cc(NC(=O)c2cnn3cccnc23)c(-c2cc(S(=O)(=O)c3ccncc3)ccc2OC(F)F)n1 has what pKi?
9.49

What does the data say about its pKi? Entry: Cn1cc(NC(=O)c2cnn3cccnc23)c(-c2cc(S(=O)(=O)c3ccn(C)c(=O)c3)ccc2OC(F)F)n1
9.28

I have this molecule here, Cn1cc(NC(=O)c2cnn3cccnc23)c(-c2cc(S(=O)(=O)c3cccnc3)ccc2OC(F)F)n1 , and I need its recorded pKi.
9.38

For CC(CO)S(=O)(=O)c1ccc(OC(F)F)c(-c2nn(C)cc2NC(=O)c2cnn3cccnc23)c1 (single isomer, unassigned) [Example 23] , what is its reported pKi?
9.59

Source: patent US11453671B2
